# Lookup of reported % inhibition ApPOL 90' keyed by entry
target: P. falciparum apicoplast DNA polymerase (Pf-apPOL) (Plasmodium falciparum, UniProt Q8ILY1); experiment: Fluorescence-based high-throughput DNA polymerase assay (molecular beacon), primary screen and dose-response; type: biochemical; details: DRC-2, 90', concentration 40;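 for % inhibition ApPOL 90': test concentration in µM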
Sequence (Q8ILY1 entry or part of it): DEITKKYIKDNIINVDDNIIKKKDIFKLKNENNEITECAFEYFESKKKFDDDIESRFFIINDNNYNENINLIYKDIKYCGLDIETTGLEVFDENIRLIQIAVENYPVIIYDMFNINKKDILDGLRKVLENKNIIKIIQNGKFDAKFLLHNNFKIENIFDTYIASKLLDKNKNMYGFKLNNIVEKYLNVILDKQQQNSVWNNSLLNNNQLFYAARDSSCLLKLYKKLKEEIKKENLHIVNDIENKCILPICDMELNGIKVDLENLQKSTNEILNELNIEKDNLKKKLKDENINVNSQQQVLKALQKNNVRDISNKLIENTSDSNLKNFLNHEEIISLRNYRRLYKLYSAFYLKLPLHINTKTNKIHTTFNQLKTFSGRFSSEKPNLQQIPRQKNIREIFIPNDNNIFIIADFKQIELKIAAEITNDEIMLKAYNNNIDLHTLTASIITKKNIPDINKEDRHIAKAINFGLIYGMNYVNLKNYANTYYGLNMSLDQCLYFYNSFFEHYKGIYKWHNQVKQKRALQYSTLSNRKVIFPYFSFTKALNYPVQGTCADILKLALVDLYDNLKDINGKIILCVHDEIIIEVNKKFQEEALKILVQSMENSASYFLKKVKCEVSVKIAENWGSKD
Outcome measure: % inhibition ApPOL 90' (%)

• CSC(C)C(=O)C=CN(C)C (stereo not shown) [Molecule 71, CSC(C(=O)C=CN(C)C)C] = 47
• O=C(Nc1ncc([N+](=O)[O-])s1)c1ccc2c(c1)C(=O)N(N1C(=O)c3ccccc3C1=O)C2=O [KU0026378] = 63
• O=C(NNC(=O)C(F)(F)Sc1ccccc1)c1ccsc1 [Molecule 68, O=C(C(Sc1ccccc1)(F)F)NNC(=O)c1cscc1] = 44
• CCOc1ccccc1-c1nc(-c2ccc(=O)[nH]c2)no1 [Molecule 76, CCOc1ccccc1c1onc(n1)c1ccc(=O)[nH]c1] = 48

* * *

biological target: P. falciparum apicoplast DNA polymerase (Pf-apPOL) (Plasmodium falciparum); assay: Fluorescence-based high-throughput DNA polymerase assay (molecular beacon), primary screen and dose-response; format: biochemical; details: DRC-1; 90'; concentration 10
Form field: % inhibition Apol 90' (one value per entry).
Outcome measure: % inhibition Apol 90' (%)

* Cl.NC(CO)C(=O)NNCc1ccc(O)c(O)c1O (centres unmarked) | 31.8192
* COc1ccc(NC(=O)Cn2ccc3c(=O)[nH]ccc32)cc1 [Molecule 13, COc1ccc(cc1)NC(=O)Cn1ccc2c1cc[nH]c2=O] | 50.5955
* CN1CC(=Cc2ccco2)C(=O)C(=Cc2ccco2)C1 | 32.2145
* OC(C#Cc1ccccc1)c1ccco1 (centres unmarked) | 68.6484
* CSC(C)C(=O)C=CN(C)C (centres unmarked) | 6.496

* * *

molecular target: P. falciparum apicoplast DNA polymerase (Pf-apPOL) (Plasmodium falciparum, UniProt Q8ILY1); assay: Fluorescence-based high-throughput DNA polymerase assay (molecular beacon), primary screen and dose-response; type: biochemical; conditions: DRC-1; 180'; concentration 20
Outcome measure: % inhibition apPOL 180' (%)

* COc1ccc2c(c1)C(c1ccccc1OC)CC(=O)O2 (centres unmarked) [Molecule 38, COc1ccc2c(c1)C(CC(=O)O2)c1ccccc1OC] | 46.2939
* O=C1N=C(Nc2cccc(Cl)c2Cl)S/C1=C\c1ccco1 [Molecule 3, O=C1N=C(S/C/1=C\c1ccco1)Nc1cccc(c1Cl)Cl] | 60.3634
* COc1ccc(C(=O)N2CCc3c(nc4cc(-c5ccccc5Cl)[nH]n4c3=O)C2)cn1 [Molecule 26] | 60
* Cc1cc(C)c(O)c(/N=C/c2cc([N+](=O)[O-])cc(Br)c2O)c1 [KU0046272] | 14.6468
* CSCCC(C)(O)CNC(=O)C1CC1 (centres unmarked) [KU0200150] | 43.4388
* CS(=O)(=O)c1cccc(C(=O)Nc2nnc(-c3ccno3)o2)c1 [KU0171319] | 2.328
* O=C1C(=Cc2ccccc2O)Oc2ccc(O)cc21 [KU0196475] | 41.2058
* CCCCc1ccc(NC(=O)CSc2nc(O)c(C#N)c(C3CCCCC3)n2)c(C)c1 [Molecule 8] | 69.2922

* * *

biological target: P. falciparum apicoplast DNA polymerase (Pf-apPOL) (Plasmodium falciparum, UniProt Q8ILY1); assay: Fluorescence-based high-throughput DNA polymerase assay (molecular beacon), primary screen and dose-response; format: biochemical; conditions: DRC-2; 40'; concentration 40;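 for % inhibition Apol 40': compound concentration given in µM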
Outcome measure: % inhibition Apol 40' (%)

- O=C(CSc1nnc(-c2ccco2)[nH]1)c1ccc(Cl)cc1: 0.537
- COc1ccc(S(=O)(=O)/N=C2\NC(=O)/C(=C3\C(=O)Nc4ccc([N+](=O)[O-])cc43)S2)cc1: 74
- O=C1N=C(Nc2cccc(Cl)c2Cl)S/C1=C\c1ccco1 [Molecule 3, O=C1N=C(S/C/1=C\c1ccco1)Nc1cccc(c1Cl)Cl]: 44
- Cc1ccc(C(=O)/C=C/C=C/C=C/N(C)C)o1: 32

* * *

target: P. falciparum apicoplast DNA polymerase (Pf-apPOL) (Plasmodium falciparum); experiment: Fluorescence-based high-throughput DNA polymerase assay (molecular beacon), primary screen and dose-response; type: biochemical; details: DRC-2; 90'; concentration 5
Label rule, in plain words: % inhibition ApPOL 90' of 10% and up is t, under 10% is f.

* Cc1ccc(CCNC(=O)c2cnn3c(O)c(Cc4ccccc4F)c(C)nc23)cc1 | t
* O=c1[nH]c2ccc(Br)cc2c(-c2ccccc2)c1C1=NNC(c2ccco2)C1 (centres unmarked) | t
* CCC(C)NC(=O)c1cc(NC(C)=O)cc2nc(C)ccc12 (centres unmarked) | f
* OC(C#Cc1ccccc1)c1ccco1 (centres unmarked) | t

* * *

target: P. falciparum apicoplast DNA polymerase (Pf-apPOL) (Plasmodium falciparum, UniProt Q8ILY1); assay: Fluorescence-based high-throughput DNA polymerase assay (molecular beacon), primary screen and dose-response; format: biochemical; conditions: DRC-2; 180'; concentration 80
Documented % inhibition apPOL 180' across a set of molecules
Outcome measure: % inhibition apPOL 180' (%)

* O=C(Cn1ccc2c(=O)[nH]ccc21)Nc1ccc(Cl)cc1 [Molecule 36, O=C(Cn1ccc2c1cc[nH]c2=O)Nc1ccc(cc1)Cl] | 67
* Cc1ccc2c(C(=O)NCCc3cccnc3)cc(NC(=O)C(C)C)cc2n1 [KU0206096] | 78
* Oc1cccc2ccc(/C=C/c3ccc4c(c3)OCO4)nc12 [KU0025984] | 78
* Cc1ccsc1Cn1c(C)ccc1C [Molecule 70, Cc1ccsc1Cn1c(C)ccc1C] | 62
* COc1ccc(NC(=O)Cn2ccc3c(=O)[nH]ccc32)cc1 [Molecule 13, COc1ccc(cc1)NC(=O)Cn1ccc2c1cc[nH]c2=O] | 76
* O=C1N/C(=N/c2ccccc2Cl)S/C1=C/c1ccc([N+](=O)[O-])o1 [KU0054524] | 73
* COc1ccc(NC(=O)Cn2ccc3c(=O)[nH]ccc32)cc1Cl [Molecule 10, COc1ccc(cc1Cl)NC(=O)Cn1ccc2c1cc[nH]c2=O] | 67
* O=[N+]([O-])c1ccc(SCc2ccco2)c2cccnc12 [KU0034480] | 75
* O=C(Nc1cccc(Cl)c1)Nc1nnc(-c2ccncc2)s1 [KU0022348] | 65
* CCC(C)NC(=O)c1cc(NC(C)=O)cc2nc(C)ccc12 (stereo not shown) [KU0206314] | 72

* * *

target: P. falciparum apicoplast DNA polymerase (Pf-apPOL) (Plasmodium falciparum); experiment: Fluorescence-based high-throughput DNA polymerase assay (molecular beacon), primary screen and dose-response; format: biochemical; conditions: DRC-2; read at 180'; concentration 20
// -1 strictly below 30% in % inhibition apPOL 180' 20; 1 otherwise

* COc1ccccc1CC(=O)N1CCc2c(nc3cc(-c4ccccc4Cl)[nH]n3c2=O)C1 [Molecule 49] | 1
* Cc1cc2[nH]c(C(=O)Nc3ccc(F)cc3)c(CN3CCOCC3)c2s1 [Molecule 60] | -1
* CCCc1ccc(Oc2coc3cc(OC)ccc3c2=O)cc1 [KU0193249] | -1
* CC(=O)Nc1cc(C(=O)c2cccs2)nn(-c2ccc(Cl)cc2)c1=O [KU0267905] | -1
* Cc1ccc(N2CCC(NC(=O)Cc3cccs3)C2=O)cc1C (centres unmarked) [Molecule 57, O=C(NC1CCN(C1=O)c1ccc(c(c1)C)C)Cc1cccs1] | 1
* CC(=O)OCC1=C(C(=O)[O-])N2C(=O)[C@@H](NC(=O)Cc3cccs3)[C@H]2SC1.[Na+] [Molecule 73] | -1
* CC(C)CC(C(=O)O)N1C(=O)C2C3C=CC(C2C1=O)C1C(=O)N(C(CC(C)C)C(=O)O)C(=O)C31 (centres unmarked) [KU0193449] | -1
* N#Cc1c(O)nc(N2CCCCC2)nc1-c1ccc2c(c1)OCO2 [KU0083146] | 1
* Cc1ccsc1Cn1c(C)ccc1C [Molecule 70, Cc1ccsc1Cn1c(C)ccc1C] | -1
* COc1ccc(C2CC(c3ccc(Cl)cc3Cl)Nc3nc(N)nn32)cc1OC (centres unmarked) [Molecule 43] | 1
* Cc1cccc(-c2noc(C(=O)NNC(=O)C(Cl)(Cl)Cl)n2)c1 [KU0266208] | -1
* Cc1nc(C)c2c(n1)N(CC1CCCCC1)C(=O)CC2 [KU0218606] | 1
* COc1ccc(/C=C/c2cc(C(=O)O)c3ccccc3n2)cc1 [Molecule 5, COc1ccc(cc1)/C=C/c1nc2ccccc2c(c1)C(=O)O] | 1
* O=C(CCc1csc(NC(=O)Nc2ccccc2)n1)Nc1nc2ccccc2s1 [KU0177354] | 1
* Cn1nc(-c2nc(-c3ccccc3)no2)c2c1CCN(C(=O)Cc1cccs1)C2 [Molecule 58] | 1
* Cn1nc(-c2nnc(-c3ccccc3F)o2)c2c1CCN(C(=O)c1ccccc1Cl)C2 [Molecule 34] | 1
* Nc1cc(Oc2ccc(O)c(N)c2)ccc1O [KU0034728] | 1
* O=C1CSC2=NC3=C(CCc4ccccc43)C(c3cccs3)N12 (centres unmarked) [Molecule 59, O=C1CSC2=NC3=C(C(N12)c1cccs1)CCc1c3cccc1] | -1
* O=C(c1ccccc1)N1CCc2c(nc3cc(-c4ccccc4)[nH]n3c2=O)C1 [Molecule 30] | 1
* C#CC(C=CC)OC(=O)c1ccccc1C(=O)O (centres unmarked) [Molecule 61, CC=CC(OC(=O)c1ccccc1C(=O)O)C#C] | 1
